Molecular target: Fuc(a1-2)[GalNAc(a1-3)]Gal(b1-3)GalNAc(a1-3)[Fuc(a1-2)]Gal(b1-4)GlcNAc
Test: glycan array binding signal (z-score within array); higher = stronger binding
Details: glycan notation: IUPAC condensed, linker removed
Only a selection was taken, and the strongest signals are over-represented in it overall.
testReadout: glycan array binding signal (z-score)
Lab note: jot down the number only; don't add units.

input: # query: glycan array binding signal (z-score) of entry Clec2 (Mus musculus), Q9JL99 (protein) MQDEDGYITLNIKPRKQALSSAEPASSWWRVMALVLLISSMGLVVGLVALGIMSVTQQKYLLAEKENLSATLQQLAKKFCQELIRQSEIKTKSTFEHKCSPCATKWRYHGDSCYGFFRRNLTWEESKQYCTEQNATLVKTASQSTLDYIAERITSVRWIGLSRQNSKKDWMWEDSSVLRKNGINLSGNTEENMNCAYLHNGKIHPASCKERHYLICERNAGMTRVDQLL
output: -0.388

input: Would you kindly share the measured glycan array binding signal (z-score) for OGAN (protein) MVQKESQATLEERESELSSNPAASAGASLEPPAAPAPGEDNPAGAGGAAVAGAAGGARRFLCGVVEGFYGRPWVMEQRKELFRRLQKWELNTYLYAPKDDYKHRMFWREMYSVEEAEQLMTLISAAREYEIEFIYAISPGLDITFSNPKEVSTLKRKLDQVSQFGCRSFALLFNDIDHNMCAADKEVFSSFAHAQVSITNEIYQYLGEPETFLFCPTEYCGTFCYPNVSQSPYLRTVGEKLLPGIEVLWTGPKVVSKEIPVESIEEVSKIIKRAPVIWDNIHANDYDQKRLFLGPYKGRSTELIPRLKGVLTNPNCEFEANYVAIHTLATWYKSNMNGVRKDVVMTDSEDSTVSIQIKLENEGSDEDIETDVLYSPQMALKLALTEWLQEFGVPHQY ?
output: 23.3

input: Sample Cohesin-marm-DC-ASGPR-CRD (protein) LDITSHHHHHHDDLDAVRIKVDTVNAKPGDTVRIPVRFSGIPSKGIANCDFVYSYDPNVLEIIEIEPGDIIVDPNPDKSFDTAVYPDRKIIVFLFAEDSGTGAYAITKDGVFATIVAKVKEGAPNGLSVIKFVEVGGFANNDLVEQKTQFFDGGVNVGDTTEPATPTTPVTTPTTTDDLDAASCPINWVEHQGSCYWFSRSGKTWPEAERYCQLENTHLVVINSREEQNFVQAHLGSAYTWMGLSDPEGVWKWVDGTDYSSGFQNWKPGQPDDWQGHGLGGGEDCAHFHPDGRWNDDVCQRSYHWVCEAGLTQASQDSH — what was its glycan array binding signal (z-score)?
output: 3.71

input: Please give the measured glycan array binding signal (z-score) for this binder: DC-Sign-R (Homo sapiens), Q9H2X3 (protein) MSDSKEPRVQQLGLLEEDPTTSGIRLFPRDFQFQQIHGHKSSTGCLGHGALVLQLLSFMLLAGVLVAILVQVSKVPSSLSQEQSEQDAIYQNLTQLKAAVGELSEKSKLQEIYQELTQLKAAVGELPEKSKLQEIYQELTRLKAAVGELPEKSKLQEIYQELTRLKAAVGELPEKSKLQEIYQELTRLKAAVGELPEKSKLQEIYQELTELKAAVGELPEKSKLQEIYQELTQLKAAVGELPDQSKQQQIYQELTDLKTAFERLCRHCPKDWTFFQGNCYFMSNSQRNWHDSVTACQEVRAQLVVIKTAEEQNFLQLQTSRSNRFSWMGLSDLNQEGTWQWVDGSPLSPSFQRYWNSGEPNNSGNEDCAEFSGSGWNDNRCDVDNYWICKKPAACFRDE
output: -0.817

input: I have this binder here, Cohesin-hDECTIN-1 (Homo sapiens) (protein) LDITSHHHHHHDDLDAVRIKVDTVNAKPGDTVRIPVRFSGIPSKGIANCDFVYSYDPNVLEIIEIEPGDIIVDPNPDKSFDTAVYPDRKIIVFLFAEDSGTGAYAITKDGVFATIVAKVKEGAPNGLSVIKFVEVGGFANNDLVEQKTQFFDGGVNVGDTTEPATPTTPVTTPTTTDDLDAASSSPCPPNWIIYEKSCYLFSMSLNSWDGSKRQCWQLGSNLLKIDSSNELGFIVKQVSSQPDNSFWIGLSRPQTEVPWLWEDGSTFSSNLFQIRTTATQENPSPNCVWIHVSVIYDQLCSVPSYSICEKKFM , and I need its recorded glycan array binding signal (z-score).
output: -0.177

input: Which glycan array binding signal (z-score) is reported for this binder? DC-ASGPR-short (Homo sapiens) (protein) MTRTYENFQYLENKVKVQGFKNGPLPLQSLLQRLRSGPCHLLLSLGLGLLLLVIICVVGFQNSKFQRDLVTLRTDFSNFTSNTVAEIQALTSQGSSLEETIASLKAEVEGFKQERQAVHSEMLLRVQQLVQDLKKLTCQVATLNNNASTEGTCCPVNWVEHQDSCYWFSHSGMSWAEAEKYCQLKNAHLVVINSREEQNFVQKYLGSAYTWMGLSDPEGAWKWVDGTDYATGFQNWKPGQPDDWQGHGLGGGEDCAHFHPDGRWNDDVCQRPYHWVCEAGLGQTSQESH
output: 1.27
